biological target: NOS1, P29475; test: holdup assay; set-up: key: below the threshold = too weak to quantify, mostly under pKd 3.1 to 4; conditions: plain residues with an end cap or a label only (N-terminal biotin on a linker: ttds)
Sequence (P29475 9-101): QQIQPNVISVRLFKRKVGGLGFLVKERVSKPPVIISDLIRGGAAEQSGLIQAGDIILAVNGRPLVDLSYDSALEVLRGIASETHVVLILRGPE
The reader will find reported pKd values listed item by item below.
Note: the reply should be a number with no unit written.

The cases that follow already have their pKd on record.
- QSARYRDTEL [TJP2, Q9UDY2]: 3.75
- SVWLRKETRV [CYSLTR2, Q9NS75]: 3.85
- RSLEEEESQL [GRASP, Q7Z6J2]: 3.6
- STLTIFETAL [ABCC4, O15439]: 4.04
- GQDSREETQL [KCNT2, Q6UVM3]: 4.05
- SSRTRRETQL [HPV16-E6, P03126]: 4.08
- IYVPEAQTRL [DLGAP4, Q9Y2H0]: 3.76
- VLRLQSETSV [VANGL1, Q8TAA9]: 3.75

Input line: Fill blank: measured pKd of the binder IDNDTESTAL [ARHGAP17, Q68EM7] is ____.
Output line: 3.95

Input line: Follow-up entry: ERKLSSESQV [LRP4, O75096]
Output line: 3.81

Input line: Same read-out for SRPQRTQTQV [HPV67-E6, A4U7F2] ?
Output line: 3.81
